Source listed as patent US9072698B2.

Tested on: HCT15 (colon adenocarcinoma)
Experiment: In vitro cytotoxicity, sulforhodamine B (SRB) method, HCT15
Type: cell-based
Conditions: Homo sapiens; HCT-15, SRB method; read-out: cytotoxicity (ED50) HCT-15
assay.endpoint: IC50 (µg/mL)
Answers are plain numbers, in µg/mL.

Consider the following illustrative entries.
{"structure.string": "O=C(/C=C/c1cc(O)ccc1O)c1ccccc1NS(=O)(=O)c1cccc(O)c1", "units.symbol": "µg/mL", "IC50": 12}
{"structure.string": "O=C(/C=C/c1ccc(O)c(O)c1)c1ccccc1NS(=O)(=O)c1ccc(O)cc1", "units.symbol": "µg/mL", "IC50": 5}

Hey, quick one: what's IC50 for each of these?
1. O=C(/C=C/c1ccc(O)c(O)c1)c1ccc(NS(=O)(=O)c2ccccc2[N+](=O)[O-])cc1
2. O=C(/C=C/c1ccc(O)c(O)c1)c1ccc(NS(=O)(=O)c2ccccc2F)cc1
3. O=C(/C=C/c1ccc(O)cc1O)c1cccc(NS(=O)(=O)c2ccc(O)cc2)c1
4. O=C(/C=C/c1ccc(O)c(O)c1)c1ccc(NS(=O)(=O)c2ccc([N+](=O)[O-])cc2)cc1
5. O=C(/C=C/c1ccc(O)cc1O)c1ccc(OS(=O)(=O)c2cccc(O)c2)cc1

[10, 8, 7, 8, 8]

Fill in: IC50 of Cc1ccc(S(=O)(=O)Nc2ccc(C(=O)/C=C/c3ccc(O)cc3)cc2)cc1 is ___ 35

----------
Test system: HCT15 (colon adenocarcinoma)
Assay: In vitro cytotoxicity, sulforhodamine B (SRB) method, HCT15
Type: cell-based
Details: Homo sapiens; HCT-15, SRB method; read-out: cytotoxicity (ED50) HCT-15
assay.endpoint: IC50 (µg/mL)
Give bare numbers, in µg/mL.

{"structure.string": "O=C(/C=C/c1ccccc1O)c1ccccc1NS(=O)(=O)c1ccc(O)cc1", "test.target": "HCT15 (colon adenocarcinoma)", "units.symbol": "µg/mL", "experimental.value": 38}
{"structure.string": "O=C(/C=C/c1ccc(O)cc1)c1ccc(NS(=O)(=O)c2ccc(F)cc2)cc1", "test.target": "HCT15 (colon adenocarcinoma)", "units.symbol": "µg/mL", "experimental.value": 55}
{"structure.string": "O=C(/C=C/c1ccc(O)cc1)c1ccccc1NS(=O)(=O)c1ccc(O)cc1", "test.target": "HCT15 (colon adenocarcinoma)", "units.symbol": "µg/mL", "experimental.value": 37}

Now let's try a different one.
Which IC50 reading was recorded for the compound O=C(/C=C/c1cc(O)ccc1O)c1ccc(NS(=O)(=O)c2cccc(O)c2)cc1 ? 8

----------
System: HCT15 (colon adenocarcinoma)
Assay: In vitro cytotoxicity, sulforhodamine B (SRB) method, HCT15
Type: cell-based
Conditions: Homo sapiens; HCT-15, SRB method; read-out: cytotoxicity (ED50) HCT-15
Mark class 1 only when IC50 stays strictly below 10 mg/L. Values equal to the cut-off are class 0.

{"molecule": "O=C(/C=C/c1ccc(O)cc1)c1ccc(NS(=O)(=O)c2ccc([N+](=O)[O-])cc2)cc1", "assigned.class": "class 0"}
{"molecule": "O=C(/C=C/c1ccc(O)cc1O)c1ccc(OS(=O)(=O)c2ccc(O)cc2)cc1", "assigned.class": "class 1"}

Given O=C(/C=C/c1cc(O)ccc1O)c1ccc(OS(=O)(=O)c2ccc(O)cc2)cc1 , is recorded IC50 strictly lower than 10 mg/L? class 1

How about O=C(/C=C/c1ccc(O)c(O)c1)c1ccccc1NS(=O)(=O)c1cccc(O)c1 ? class 1

# iterate: O=C(/C=C/c1cccc(O)c1)c1ccccc1NS(=O)(=O)c1ccc(O)cc1 class 0

Also, O=C(/C=C/c1cccc(O)c1)c1ccc(OS(=O)(=O)c2cccc(O)c2)cc1 please. class 0

What about O=C(/C=C/c1cccc(O)c1)c1ccc(OS(=O)(=O)c2ccc(O)cc2)cc1 ? class 0

And for Cc1ccc(S(=O)(=O)Nc2cccc(C(=O)/C=C/c3ccc(O)cc3)c2)cc1 ? class 0

Item: O=C(/C=C/c1ccc(O)c(O)c1)c1ccc(NS(=O)(=O)c2cccc([N+](=O)[O-])c2)cc1 class 0

Entry to check: O=C(/C=C/c1ccc(O)cc1)c1ccc(NS(=O)(=O)c2ccc(O)cc2)cc1 class 0

What would you report for O=C(/C=C/c1cccc(O)c1O)c1cccc(NS(=O)(=O)c2ccc(O)cc2)c1 ? class 1

Now try O=C(/C=C/c1cccc(O)c1O)c1ccccc1NS(=O)(=O)c1ccc(O)cc1 . class 1

Ok, now O=C(/C=C/c1cccc(O)c1)c1cccc(NS(=O)(=O)c2ccc(O)cc2)c1 class 0

Now try O=C(/C=C/c1ccc(O)cc1O)c1ccccc1NS(=O)(=O)c1cccc(O)c1 . class 1

Same again, this time with O=C(/C=C/c1ccc(O)cc1)c1ccccc1NS(=O)(=O)c1cccc(O)c1 class 0

Can you handle O=C(/C=C/c1ccc(O)cc1)c1ccc(OS(=O)(=O)c2ccc([N+](=O)[O-])cc2)cc1 next? class 0

Also, Cc1ccc(S(=O)(=O)Nc2cccc(C(=O)/C=C/c3ccc(O)c(O)c3)c2)cc1 please. class 1

O=C(/C=C/c1ccccc1O)c1ccc(OS(=O)(=O)c2ccc(O)cc2)cc1 ? class 0

Input Nc1ccc(S(=O)(=O)Nc2ccc(C(=O)/C=C/c3ccc(O)c(O)c3)cc2)cc1 class 1

// next record O=C(/C=C/c1cccc(O)c1O)c1ccc(NS(=O)(=O)c2ccc(O)cc2)cc1 class 1

Okay, and O=C(/C=C/c1ccc(O)cc1)c1ccc(NS(=O)(=O)c2ccccc2[N+](=O)[O-])cc1 ? class 0

Next molecule: Cc1ccc(S(=O)(=O)Nc2ccc(C(=O)/C=C/c3ccccc3O)cc2)cc1 class 0
